assay name: Tmax in male CD-1 mouse at 1 mg/kg, ip measured for 0.083 to 48 hrs by HPLC/MS/MS analysis
Type: ADME, organism-based
experimental context: in vivo, time 0.083-48 hrs
property label: Tmax (h)
Answers are plain numbers, in h.

Read the entry "Fc1cc(-c2nc3c(C(F)(F)F)cc(C(F)(F)F)cc3[nH]2)cc(-c2nc3c(C(F)(F)F)cc(C(F)(F)F)cc3[nH]2)c1" and write its reported Tmax.
3.5

---

assay name: Half life in male CD-1 mouse at 1 mg/kg, ip measured for 0.083 to 48 hrs by HPLC/MS/MS analysis
Assay type: ADME, organism-based
experimental context: in vivo, time 0.083-48 hrs
property label: half-life (h)
One number for each entry, in h.

Read the entry "Fc1cc(-c2nc3c(C(F)(F)F)cc(C(F)(F)F)cc3[nH]2)cc(-c2nc3c(C(F)(F)F)cc(C(F)(F)F)cc3[nH]2)c1" and write its reported half-life.
19.9
